pIC50: −log10 of the molar value.
Record: compiled pIC50 on Cathepsin D (Homo sapiens) from multiple reports.
readout_kind: pIC50

These solved cases illustrate the format of a correct answer.
Cc1cc(Br)cnc1C(=O)Nc1ccc2c(c1)[C@@]1(CCSC(N)=N1)c1cc(C3=CCOCC3)nc(F)c1O2 = 4.05
COc1cnc(C(=O)Nc2ccc3c(c2)[C@@]2(CCOC(N)=N2)c2cc(-c4ccnc(F)c4)ncc2O3)cn1 = 3.40

[A] CN1C(N)=N[C@](C)(c2cc(/C=C(\F)c3ccc(C#N)cn3)ccc2F)C(C)(C)S1(=O)=O
[B] COc1cnc2c(Nc3ccc4c(c3)[C@@]3(CCSC(N)=N3)c3cc(C5=CCOCC5)nc(F)c3O4)nccc2c1
[C] CC1(C)C(N)=N[C@](C)(c2cc(/C=C(\F)c3cnc(OCC4CCCCC4)cn3)ccc2F)CS1(=O)=O
[D] CN1C(N)=N[C@](C)(c2cc(/C=C(\F)c3ccc(C#CC4CC4)cn3)ccc2F)CS1(=O)=O
# ascending order, key=pIC50 The labels, placed in the requested order, form the answer.
B, A, D, C

---

Header: IC50 / Cathepsin D (Homo sapiens) / multiple publications
readout_kind: IC50 (µM)

# count of solved cases: 4
C[C@]1(c2cc(NC(=O)c3ccc(Cl)s3)ccc2F)N=C(N)O[C@@H]2CCCC(F)(F)[C@@H]21 = 105
CN1C(N)=N[C@](C)(c2cc(/C=C(\F)c3ccc4c(n3)OCCO4)ccc2F)CS1(=O)=O = 122
CN1C(N)=N[C@](C)(c2cc(/C=C(\F)c3ccc(Br)cn3)cc(F)c2F)CS1(=O)=O = 35.8
CC#CCOc1cnc(/C(F)=C/c2ccc(F)c([C@@]3(C)N=C(N)N(C)S(=O)(=O)C3(C)C)c2)cn1 = 259

[P] COc1cnc(/C(F)=C/c2ccc(F)c([C@]3(C)CS(=O)(=O)C(C)(C)C(N)=N3)c2)cn1
[Q] COc1cc(F)c2c(c1)[C@]1(CCOC(N)=N1)c1cc(NC(=O)c3ccc(C#N)cn3)ccc1O2
Could you tell me which of these two has the smaller IC50 figure? First: P Second: Q State the label of the item chosen.
Q
(Q: 147 µM, P: 237 µM)

---

Compiled notes: published IC50 values involving Cathepsin D (Homo sapiens).
readout_kind: IC50 (µM)

C#CCOc1cnc(/C(F)=C/c2ccc(F)c([C@@]3(C)N=C(N)[C@@]4(CF)CC[C@@H]3S4(=O)=O)c2)cn1 = 145
COc1ccc(C(=O)Nc2ccc3c(c2)[C@@]2(CCOC(N)=N2)c2cc(C4=CCCOC4)nc(F)c2O3)nc1 = 313
N#Cc1ccc(C(=O)Nc2ccc3c(c2)[C@@]2(CCOC(N)=N2)c2cc(-c4ccnc(F)c4)nc(F)c2O3)nc1 = 518
C=CCOc1cnc(/C(F)=C/c2ccc(F)c([C@@]3(C)N=C(N)[C@@]4(CF)CC[C@@H]3S4(=O)=O)c2)cn1 = 91.2
C[C@]1(c2cc(NC(=O)c3ccc(Cl)cn3)ccc2F)N=C(N)O[C@@H]2CC(F)(F)C[C@@H]21 = 52
CC1(C)C(N)=N[C@](C)(c2cc(/C=C(\F)c3cnc(Oc4ccccc4)cn3)ccc2F)CS1(=O)=O = 59.5
COc1ccc(C(=O)Nc2ccc3c(c2)[C@@]2(CCSC(N)=N2)c2cc(N4CCOCC4)cc(F)c2O3)nc1 = 326
CN1C(N)=N[C@](C)(c2cc(/C=C(\F)c3ccc(Cl)cn3)cc(F)c2F)CS1(=O)=O = 48.8

[1] CC#C[C@H](CC)Oc1cnc(/C(F)=C/c2ccc(F)c([C@]3(C)CS(=O)(=O)C(C)(C)C(N)=N3)c2)cn1 (single isomer, unassigned)
[2] CC(C)(C#N)COc1cnc(/C(F)=C/c2ccc(F)c([C@]3(C)CS(=O)(=O)C(C)(C)C(N)=N3)c2)cn1
[3] CN1C(N)=N[C@](C)(c2cc(/C=C(\F)c3cnc(OCC#CCF)cn3)ccc2F)CS1(=O)=O
Ascending sort, IC50. Your answer should be the labels, listed in the requested order.
3, 1, 2

[A] CC#CCOc1cnc(/C(F)=C/c2cc(F)c(F)c([C@]3(C)CS(=O)(=O)N(C)C(N)=N3)c2)cn1
[B] COc1cnc(C(=O)Nc2ccc3c(c2)[C@@]2(CCOC(N)=N2)c2cc(C4CC4)ncc2O3)cn1
[C] Cc1nc2c(Nc3ccc4c(c3)[C@@]3(CCOC(N)=N3)c3cc(C5=CCOCC5)ncc3O4)nccc2s1
[D] C#C[C@H](C)Oc1cnc(/C(F)=C/c2ccc(F)c([C@@]3(C)N=C(N)[C@@]4(CF)CC[C@@H]3S4(=O)=O)c2)cn1
Provide the items ranked by increasing IC50. The response must list the labels following the requested ordering.
A, D, C, B

---

pIC50: −log10 of the molar value.
Field pIC50: reported value for Cathepsin D (Homo sapiens); entries drawn from several documents.
readout_kind: pIC50

[2H]C([2H])([2H])N=[S@@]1(=O)C[C@@](C)(c2cc(-c3cc(-c4cnc(OC)cn4)no3)ccc2F)N=C(N)C1(C)C = 4.41
CC1(c2cccc(Nc3cc(F)cc4cc(Cl)cnc34)c2)COCC(N)=N1 (stereo not shown) = 5.59
COc1cc(F)c2c(c1)[C@]1(CCOC(N)=N1)c1cc(Nc3ncccc3OCc3ccccc3)ccc1O2 = 3.40

[A] NC1=N[C@@]2(CCO1)c1cc(NC(=O)c3ccc(F)cn3)ccc1Oc1c2cc(C2=CCCOC2)nc1F
[B] CN1C(N)=N[C@](C)(c2cc(/C=C(\F)c3ccc(C(F)(F)F)cn3)cc(F)c2F)CS1(=O)=O
# returns the entry with the larger pIC50; inputs A and B Identify your pick by its label.
B

---

pIC50: −log10 of the molar value.
# literature pull: Cathepsin D (Homo sapiens) pIC50
readout_kind: pIC50

Example results:
CN1C(N)=N[C@](C)(c2cc(/C=C(\F)c3ccc(C#N)s3)ccc2F)CS1(=O)=O = 4.81
CN1C(N)=N[C@](C)(c2cc(/C=C(\F)c3ccc(F)cn3)ccc2F)CS1(=O)=O = 3.43
CC1(C)C(N)=N[C@](CF)(c2cc(/C=C(\F)c3ccc(C#N)cn3)ccc2F)CS1(=O)=O = 3.81
CN1C(N)=N[C@](C)(c2cc(/C=C(\F)c3cnc(OCc4ncco4)cn3)cc(F)c2F)CS1(=O)=O = 4.39
Cc1noc(COc2cnc(/C(F)=C/c3ccc(F)c([C@]4(C)CS(=O)(=O)N(C)C(N)=N4)c3)cn2)n1 = 3.82

[P] CN1C(N)=N[C@](C)(c2cc(/C=C(\F)c3cnc(OCc4ncccn4)cn3)cc(F)c2F)CS1(=O)=O
[Q] Cc1noc(COc2cnc(/C(F)=C/c3cc(F)c(F)c([C@]4(C)CS(=O)(=O)N(C)C(N)=N4)c3)cn2)n1
Lab note: check whether P or Q has the lower measured pIC50. Your choice should be expressed through its label.
Q

[A] C[C@H]1COc2cnc(/C(F)=C/c3ccc(F)c([C@]4(C)CS(=O)(=O)N(C)C(N)=N4)c3)nc2O1
[B] Cc1cnc(COc2cnc(/C(F)=C/c3cc(F)c(F)c([C@]4(C)CS(=O)(=O)N(C)C(N)=N4)c3)cn2)o1
Which of the two items, A and B , has the greater recorded pIC50? Your choice should be expressed through its label.
B
(B: 4.46, A: 4.26)

[A] CC#CCOc1cnc(/C(F)=C/c2ccc(F)c([C@]3(CF)CS(=O)(=O)C(C)(C)C(N)=N3)c2)cn1
[B] COc1cc(Br)c(C(=O)N[C@@H](Cc2ccccc2)[C@@H](O)CN(CCc2ccc3c(c2)OCO3)C(=O)CCN2C(=O)c3ccccc3C2=O)cc1OC
[C] CN1C(N)=N[C@](C)(c2cc(/C=C(\F)c3ccc(C#N)cn3)cc(F)c2F)CS1(=O)=O
hey, can you rank those compounds up there by pIC50? biggest number first please Respond with the label ranking, as requested.
B, A, C
(B: 7.19, A: 4.31, C: 4.09)

[a] CN1C(N)=N[C@](C)(c2cc(/C=C(\F)c3cc4c(cn3)OCCO4)ccc2F)CS1(=O)=O
[b] CN1C(N)=N[C@](C)(c2cc(/C=C(\F)c3cnc(OCc4cscn4)cn3)cc(F)c2F)CS1(=O)=O
[c] Cc1cc(COc2cnc(/C(F)=C/c3ccc(F)c([C@@]4(C)N=C(N)N(C)S(=O)(=O)C45CC5)c3)cn2)no1
[d] COc1ccc(C(=O)Nc2ccc3c(c2)[C@@]2(CCOC(N)=N2)c2cc(OC)cc(F)c2O3)c(F)c1
Order by pIC50, ascending. Order the labels as requested and list them.
d, a, b, c
(d: 3.48, a: 3.78, b: 4.49, c: 4.80)

---

// merged dataset of IC50 values, system = Cathepsin D (Homo sapiens, UniProt P07339), multiple refs
readout_kind: IC50 (µM)

O=C(COc1ccc(Cl)c(Cl)c1)N[C@@H](Cc1ccccc1)[C@@H](O)CN(CCc1ccc2c(c1)OCO2)C(=O)CCN1C(=O)c2ccccc2C1=O = 0.019
CN1C(N)=N[C@](C)(c2cc(/C=C(\F)c3cnc(Cl)cn3)ccc2F)C2(CC2)S1(=O)=O = 428
CN1C(N)=N[C@](C)(c2cc(/C=C(\F)c3ncc4c(n3)OCCO4)ccc2F)CS1(=O)=O = 107

[I] Cc1noc(COc2cnc(/C(F)=C/c3ccc(F)c([C@@]4(C)N=C(N)[C@@]5(CF)CC[C@@H]4S5(=O)=O)c3)cn2)n1
[II] O=C(COc1ccc(Cl)cc1Cl)N[C@@H](Cc1ccccc1)[C@@H](O)CN(CCc1ccc2c(c1)OCO2)C(=O)CCN1C(=O)c2ccccc2C1=O
[III] NC1=N[C@@]2(CCO1)c1cc(NC(=O)c3ccc(Cl)cn3)ccc1Oc1cnc(Cl)cc12
[IV] CC#C[C@@H](C)Oc1cnc(/C(F)=C/c2ccc(F)c([C@]3(C)CS(=O)(=O)C(C)(C)C(N)=N3)c2)cn1 (single isomer, unassigned)
[V] NC1=N[C@@]2(CCO1)c1cc(NC(=O)c3ccc(Cl)cn3)ccc1Oc1ncc(Br)cc12
Sort ascending by IC50. Give your ranking as a list of the labels in the requested order.
II, IV, I, V, III
(II: 0.014 µM, IV: 57.5 µM, I: 102 µM, V: 245 µM, III: 400 µM)
